Assay Target: CYP3A4 (Homo sapiens, UniProt P08684)
Sequence (P08684 whole entry): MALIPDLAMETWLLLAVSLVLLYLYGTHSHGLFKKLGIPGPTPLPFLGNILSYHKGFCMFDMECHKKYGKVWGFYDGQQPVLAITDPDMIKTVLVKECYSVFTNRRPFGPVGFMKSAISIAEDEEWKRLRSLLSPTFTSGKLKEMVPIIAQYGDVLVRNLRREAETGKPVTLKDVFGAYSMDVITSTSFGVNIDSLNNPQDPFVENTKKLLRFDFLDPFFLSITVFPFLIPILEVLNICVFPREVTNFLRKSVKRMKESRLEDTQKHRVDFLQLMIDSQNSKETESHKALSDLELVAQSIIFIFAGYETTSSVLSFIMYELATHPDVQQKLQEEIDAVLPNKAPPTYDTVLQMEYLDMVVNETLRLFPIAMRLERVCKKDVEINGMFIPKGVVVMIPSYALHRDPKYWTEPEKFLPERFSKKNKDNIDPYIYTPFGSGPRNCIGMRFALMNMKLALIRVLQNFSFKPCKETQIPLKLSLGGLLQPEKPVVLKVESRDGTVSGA
Run Description: Time dependent inhibition of CYP3A4 using testosterone as substrate at 10 uM for 30 mins
Assay type: ADME
Study Conditions: probe testosterone
inhibition at 0.5 h, 10 µM of 40% or higher: yes (1). Under 40%: no (0).

Past entries and their recorded results:
# Chemical Smiles, Classification
records = [
    ("CC(=O)NCCc1ccccc1-c1ccc([C@H]2CNCC[C@@H]2c2cccnc2)c(Cl)c1", "yes (1)"),
    ("CC(=O)NCCc1ccccc1-c1ccc([C@H]2CNCC[C@@]23OC(=O)c2cc(F)c(F)cc23)c(C)c1", "yes (1)"),
    ("CC(=O)NCCc1ccccc1-c1ccc([C@H]2CNCC[C@@]23OCc2cc(F)c(F)cc23)c(C)c1", "yes (1)"),
    ("COCC(F)(F)COCc1ccc([C@@]2(O)CCNC[C@@H]2c2ccc(-c3ccccc3CCNC(C)=O)cc2C)cc1", "no (0)"),
    ("CCOC(=O)NCCc1ccccc1-c1ccc([C@H]2CNCC[C@@H]2c2ccn(C)c(=O)c2)c(Cl)c1", "yes (1)"),
]

Does the molecule COC(=O)NCCc1ccccc1-c1ccc([C@H]2CNCC[C@@H]2c2ccn(C)c(=O)c2)c(Cl)c1 have recorded inhibition at 0.5 h, 10 µM that is 40% or more? yes (1)

Does the molecule CC(=O)NCCc1ccccc1-c1ccc([C@H]2CNCC[C@@H]2c2ccn(C)c(=O)c2)c(Cl)c1 have recorded inhibition at 0.5 h, 10 µM that is 40% or more? no (0)

###

Run Description: Cmax in Sprague-Dawley rat at 30 mg/kg, po and 5 mg/kg, iv
Format: ADME, organism-based
Study Conditions: in vivo
Cmax for assorted compounds
Report as a plain number; the unit nM is understood.

Consider the compound CC(=O)NCCc1ccccc1-c1ccc([C@@H](CN)Cc2ccc(OCCOc3c(Cl)cc(C)cc3Cl)cc2)c(C)c1.Cl and give its measured Cmax. 440

Consider the compound CC(=O)NCCc1ccccc1-c1ccc([C@H]2CNCC[C@@H]2c2ccn(C)c(=O)c2)c(Cl)c1.Cl and give its measured Cmax. 450

###

Assay Target: CYP3A4 (Homo sapiens)
Run Description: Time dependent inhibition of CYP3A4 using testosterone as substrate at 10 uM for 30 mins
Type: ADME
Study Conditions: probe testosterone
Value Kind: inhibition at 0.5 h, 10 µM (%)
Report as a plain number; the unit % is understood.

# Chemical Smiles, Assay Target, Reading Unit, inhibition at 0.5 h, 10 µM
measured = [
    ("CCC(=O)NCCc1ccccc1-c1ccc([C@H]2CNCC[C@@H]2c2ccn(C)c(=O)c2)c(Cl)c1", "CYP3A4 (Homo sapiens)", "%", 21),
    ("CC(=O)NCCc1ccccc1-c1ccc([C@H]2CNCC[C@]2(O)c2ccc(F)c(F)c2)c(C)c1", "CYP3A4 (Homo sapiens)", "%", 40),
    ("CC(=O)NCCc1ccccc1-c1ccc([C@H]2CNCC[C@@H]2c2ccc(F)c(F)c2)c(Cl)c1", "CYP3A4 (Homo sapiens)", "%", 49),
    ("COC[C@H](C)COCc1ccc([C@@]2(O)CCNC[C@@H]2c2ccc(-c3ccccc3CCNC(C)=O)cc2C)cc1", "CYP3A4 (Homo sapiens)", "%", 72),
]

// switching to the query molecule
Consider the molecule CC(=O)NCCc1ccccc1-c1ccc([C@@H](CN)Cc2ccc(OCCOc3c(Cl)cc(C)cc3Cl)cc2)c(C)c1.Cl and give its measured inhibition at 0.5 h, 10 µM. 74
